# System: cytotoxicity, CellTiter-Glo ATP luminescence
# protocol_description: loss of cell viability by ATP content – CellTiter-Glo, cytotoxicity control, dose response (AID 1259333)
The source made the active and inactive calls. How the calls were made is not given here; tested in parental BL2 cells.
Respond using exactly one of the listed classes: active, inactive

// return assay outcome for Cc1c(C(=O)c2cccc3ccccc23)c2cccc3c2n1[C@H](CN1CCOCC1)CO3
active

Call for entry C[C@@H]1CN([C@H](C)CO)C(=O)c2c(c3ccccc3n2C)-c2ccccc2CO[C@@H]1CN(C)C(=O)c1cc(Cl)cc(Cl)c1 :
active

Each molecule tested received a call. Report the one for O=C1Cc2c([nH]c3ccc(Br)cc23)-c2ccccc2N1 .
active

# fetch the recorded call for OCC1OC(n2cnc3cc(Cl)c(Cl)cc32)C(O)C1O (stereo not drawn) here
inactive

Please share the test call associated with COC(=O)c1ccc2nc(NC(=O)C(C)(C)C)sc2c1 .
active

What classification did C[C@@H]1CN([C@@H](C)CO)C(=O)c2ccccc2-c2ccccc2CO[C@H]1CN(C)Cc1ccccc1C(F)(F)F end up with in this test?
active

# lookup: test call for C[C@H]1O[C@@H](O[C@H]2[C@@H](O)C[C@H](O[C@H]3[C@@H](O)C[C@H](O[C@H]4CC[C@]5(C)C6C[C@@H](O)[C@]7(C)[C@@H](C8=CC(=O)OC8)CC[C@]7(O)C6CC[C@@H]5C4)O[C@@H]3C)O[C@@H]2C)C[C@H](O)[C@@H]1O (stereo partly drawn)
active

Fill in: this test's call for COc1ccc(CN(CCC(c2ccccc2)c2ccc(OC(C)C)cc2)C(=O)CCl)cc1OC (stereo not drawn) is ___
active

Hi team, can someone confirm the assay call for COc1ccc(C[C@H]2NC[C@H](O)[C@H]2OC(C)=O)cc1 ?
active

Hi, do you know how CCc1cc2c(=O)c(-c3ccc4c(c3)OCCO4)coc2c(CN2CCCCC2C)c1O (stereo not drawn) came out in this test?
active

Query: recorded result category for COc1ccc(S(=O)(=O)Nc2ccc3c(c2)C(=O)N([C@@H](C)CO)C[C@H](C)[C@H](CN(C)Cc2ccc(C(F)(F)F)cc2)OCCCC[C@H](C)O3)cc1 in this test
inactive

Which outcome was assigned to COC(=O)C1=C(C(=O)OC)C2OC1c1cc3ccccc3cc12 in this test?
active

Fill in: this test's call for COc1ccc2c(c1)c1ncn(Cc3ccccn3)c(=O)c1n2C is ___
inactive

For this molecule, state the assay outcome: COCCn1c(C)cc(C(=O)COC(=O)c2ccc(Cl)c(S(N)(=O)=O)c2)c1C
active

Identify the outcome logged in this assay for the molecule shown: N#C[C@@H]1[C@H](c2ccc(C#CC3CCCC3)cc2)[C@@H](CO)N1C(=O)Nc1ccc(F)cc1
inactive

Recorded test call requested for COc1ccc(/C=C\c2nc(=O)c3ccccc3o2)cc1
active

Short answer needed: outcome of this test for Oc1c(Cl)cc(Cl)c(Cl)c1Cc1c(O)c(Cl)cc(Cl)c1Cl ?
active

Record request — test call for COc1cccc(C#Cc2ccc([C@H]3[C@@H](C#N)N(C(=O)c4ccccn4)[C@@H]3CO)cc2)c1
active

====

# System: cytotoxicity, CellTiter-Glo ATP luminescence
# protocol_description: loss of cell viability by ATP content – CellTiter-Glo, cytotoxicity control, dose response (AID 1259333)
Calls of active or inactive are those of the source. How the calls were made is not given here; tested in parental BL2 cells.
Select the matching outcome among yes (1) for active, no (0) for inactive

Status in this test for O=C(Cc1ccccc1)N1CC[C@@H]2[C@H]1c1cc(C#Cc3cccc(F)c3)ccc1N[C@@H]2CO ?
yes (1)

I'd appreciate the recorded outcome for CC1CC(C)C(=NNC(N)=O)C(C(O)CC2CCC(=O)NC2=O)C1 (centres undefined) from this test.
no (0)

Per the records of this test, what outcome belongs to C[C@H]1CN([C@@H](C)CO)C(=O)c2c(c3ccccc3n2C)-c2ccccc2CO[C@H]1CN(C)C(=O)Nc1cccc(C(F)(F)F)c1 ?
yes (1)

Please let me know the test result on file for C[C@@H]1O[C@@H](O[C@H]2C[C@@H](O)[C@]3(CO)[C@H]4[C@H](O)C[C@]5(C)[C@@H](C6COC(=O)C6)CC[C@]5(O)[C@@H]4CC[C@]3(O)C2)[C@H](O)[C@H](O)[C@H]1O (some centres undefined) .
yes (1)

Hello, I am checking results. What call was entered for CN(C)c1ccc(C(=C2C=CC(=[N+](C)C)C=C2)c2ccc(N(C)C)cc2)cc1 ?
yes (1)

Short answer needed: outcome of this test for CC1=NNC(=O)C1Br (centres undefined) ?
yes (1)

// outcome(item) with item = Cn1cnc([N+](=O)[O-])c1S(=O)(=O)Oc1cccc2ccccc12
yes (1)

Can you look up the reported call for c1ccc2sc(-c3ccc4c(c3)OCO4)nc2c1 for me?
yes (1)

Which outcome was entered for the molecule CC1CC(C)(O)CC(C(O)CC2CC(=O)NC(=O)C2)C1=O (centres undefined) in this test?
yes (1)

====

# Tested on: cytotoxicity, CellTiter-Glo ATP luminescence
# protocol_description: loss of cell viability by ATP content – CellTiter-Glo, cytotoxicity control, dose response (AID 1259333)
Active and inactive are the calls of the source. How the calls were made is not given here; tested in parental BL2 cells.
The reply should be one of these categories: YES (active), NO (inactive)

Hi, sorry to bother you, what did the test record for O=C1NC2c3c(Cl)sc(Cl)c3C(=O)C2O1 (centres undefined) ?
YES

I'd appreciate the recorded outcome for C=CC[n+]1c(/C=C2\C=Cc3cc(C)ccc3N2CC)ccc2ccccc21 from this test.
YES

Could you check what this test reported for CNc1c2cccc(C)c2nc2c(C(=O)NCCN(C)C)cccc12 ?
YES

# fetch the recorded call for C1CCC(C(CC2CCCCN2)C2CCCCC2)CC1 (centres undefined) here
YES

Returns: the outcome recorded for C[C@H](CO)N1C[C@H](C)[C@@H](CN(C)Cc2cccc(C(F)(F)F)c2)OCc2ccccc2-c2c(n(C)c3ccccc23)C1=O in this assay.
YES

Call for entry CC1OC(OC2C(O)CC(OC3C(O)CC(OC4CCC5(C)C(CCC6C5CCC5(C)C(C7=CC(=O)OC7)C(O)CC65O)C4)OC3C)OC2C)CC(O)C1O (centres undefined) :
YES

Fill in: this test's call for CC(C)c1ccc(NC(=O)Nc2nc(C(N)COCc3ccccc3)cs2)cc1 (centres undefined) is ___
YES

Per the assay record, what outcome was assigned to Cc1cc(C)cc(N2C(=O)CC(Sc3nnnn3-c3ccccc3)C2=O)c1 (centres undefined) ?
YES

Answer briefly: the call reported for C[C@@H]1CN([C@@H](C)CO)C(=O)c2ccccc2-c2ccccc2CO[C@@H]1CN(C)Cc1ccccc1C(F)(F)F in this assay.
NO

====

Assignment: determine reported AC50 for the given compounds.
# Tested on: cytotoxicity, CellTiter-Glo ATP luminescence
# protocol_description: loss of cell viability by ATP content – CellTiter-Glo, cytotoxicity control, dose response (AID 1259333)
Calls of active or inactive are those of the source. How the calls were made is not given here; tested in parental BL2 cells.

Input C[C@H]1CN([C@@H](C)CO)C(=O)c2c(c3ccccc3n2C)-c2ccccc2CO[C@@H]1CN(C)S(=O)(=O)c1ccc([N+](=O)[O-])cc1 . Output AC50: > 20 µM (inactive)

The compound listed as COc1cc2cc(C(=O)N3CC(COS(C)(=O)=O)c4ccc(O)cc43)[nH]c2c(OC)c1OC (stereo not drawn) has a reported AC50 of 0.276 µM

Just so you know, measured AC50 for C[C@@H]1CN([C@@H](C)CO)C(=O)c2c(c3ccccc3n2C)-c2ccccc2CO[C@H]1CN(C)Cc1cccc(C(F)(F)F)c1 came out at 3.94 µM

Briefly, AC50 measured for CCCNC(=O)N1[C@@H](C#N)[C@H](c2ccc(-c3cccc(OC)c3)cc2)[C@@H]1CO : > 20 µM (inactive)

Lab note: measured AC50 of C[C@@H]1CN([C@@H](C)CO)C(=O)c2c(c3ccccc3n2C)-c2ccccc2CO[C@H]1CN(C)Cc1ccccc1 was 9.77 µM

For this compound ( CCCCCCCCCCCCCCCC[n+]1ccccc1 ), measured AC50 is 1.55 µM

Reported AC50 of COc1ccc(CC2C(=O)NC(C)C(=O)N(C)C3C(=O)N(C)C(Cc4ccc(O)c(c4)Oc4ccc(cc4)C3O)C(=O)NC(C)C(=O)NC(C)C(=O)N2C)cc1 (stereo not drawn) : 8.5 µM

Recorded AC50 (compound C[C@@H]1C[C@@H]([C@H](O)CC2CC(=O)NC(=O)C2)C(=O)[C@@H](C)C1 ): > 20 µM (inactive)

====

# Tested on: cytotoxicity, CellTiter-Glo ATP luminescence
# protocol_description: loss of cell viability by ATP content – CellTiter-Glo, cytotoxicity control, dose response (AID 1259333)
Activity calls are given as the source filed them. The rule behind the calls is not given here; tested in parental BL2 cells. Numbered stars: 1 amine (or outer) side, 2 acyl side, 3 side chain; on linkers, the order of the positions; unused ones are H or OH. Bridge positions count the residues as written; N and C are the ends. Square brackets hold non-standard residues; d marks the D form. Peptide text beside a SMILES is read from it. I, II: the chains in the order shown. Actinocin(9to1) = Cc1c2oc3c(C)ccc(C(=O)[*:1])c3nc-2c(C(=O)[*:2])c(N)c1=O; NMeV = CN[CH](C(=O)O)C(C)C; Sar = CNCC(=O)O
// one of t = active, f = inactive, no free text

Called result for O=C(Nc1ccccn1)c1ccc(-c2ccccc2)cc1
f

Record request — test call for c1ccc2nc(-c3nc4ccccc4o3)ccc2c1
f

# outcome recorded in this test, key = Cc1c2oc3c(C)ccc(C(=O)OC(C)C4NC(=O)C(C(C)C)N(C)C(=O)CN(C)C(=O)C5CCCN5C(=O)C(C(C)C)NC4=O)c3nc-2c(C(=O)OC(C)C2NC(=O)C(C(C)C)N(C)C(=O)CN(C)C(=O)C3CCCN3C(=O)C(C(C)C)NC2=O)c(N)c1=O (stereo not drawn) (I: cyclo([Sar][NMeV]TVP) / II: cyclo([Sar][NMeV]TVP); linker I:3-II:3 via Actinocin(9to1); configuration not given here)
f

Answer briefly: the call reported for COc1cc(C(C)C)c2c(c1)S(=O)(=O)N(COc1cc(=O)n3cccc(OCCN4CCCCC4)c3n1)C2=O in this assay.
t

Tell me the assay call for Clc1ccc(C(Cn2ccnc2)OCc2ccsc2Cl)c(Cl)c1 (stereo not drawn) please.
f

What was the test verdict on COc1ccc(/C=C2/CCC(CN3CCOCC3)C2=O)cc1 (stereo not drawn) ?
t

Recorded test call requested for Clc1ccc(CSC(Cn2ccnc2)c2ccc(Cl)cc2Cl)cc1 (stereo not drawn)
f

Dear all, I need the recorded test outcome for COc1ccc(C#Cc2ccc([C@H]3[C@@H](CO)N4CCCCN(S(=O)(=O)c5cn(C)cn5)C[C@H]34)cc2)cc1 , thank you.
t
